# Target Entity: pfDHODH (Plasmodium falciparum (isolate 3D7))
# Sequence (Q08210 159-565 limits assumed): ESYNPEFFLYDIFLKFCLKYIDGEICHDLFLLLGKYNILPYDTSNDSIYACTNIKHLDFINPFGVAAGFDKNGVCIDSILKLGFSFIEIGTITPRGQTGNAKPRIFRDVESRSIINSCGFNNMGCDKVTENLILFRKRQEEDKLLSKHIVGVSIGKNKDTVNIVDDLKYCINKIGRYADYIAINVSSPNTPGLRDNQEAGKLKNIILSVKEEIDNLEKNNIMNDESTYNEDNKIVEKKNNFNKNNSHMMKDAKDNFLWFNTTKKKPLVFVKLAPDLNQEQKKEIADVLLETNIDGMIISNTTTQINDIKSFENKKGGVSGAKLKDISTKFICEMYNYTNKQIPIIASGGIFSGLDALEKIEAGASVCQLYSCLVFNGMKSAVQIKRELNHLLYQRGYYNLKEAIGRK
# Assay Overview: DHODH chromogen reduction (DCIP) assay, pfDHODH
# Assay type: biochemical, P. falciparum
# Conditions Used: 50 μM inhibitor; 200 μM L-DHO, 100 μM CoQD, 60 μM DCIP; read-out: % Inhibition of Product Formation Rate with 50 μM Inhibitor, CoQD
# Experimental: Type 2 DHODH activity was monitored with either the direct assay measuring the formation of orotate or via a chromogen reduction assay using DCIP. […] Substrate specificity and enzyme inhibition data was analyzed with GraphPad Prism Version 4 for Windows (GraphPad Software). Kinetic constants were calculated by non-linear regression fitting of the data to the Michaelis-Menten equation [36]. IC50 values were determined by non-linear regression fitting of the data to Equation 1: […]
inhibition at 50 µM reference
Observation Type: inhibition at 50 µM

{"Molecule": "CCOC(=O)c1[nH]c(C)c(Cc2ccc(OCC)cc2)c1C", "Val": "102%"}
{"Molecule": "CCCCCC1CCCc2c1nc1ccccc1c2O (stereo not shown)", "Val": "100%"}
{"Molecule": "Fc1cc(I)ccc1Nc1ccnc2cc(Cl)ccc12", "Val": "97%"}
{"Molecule": "O=C(NC1CC1)c1ccc(N2CCSc3ccccc32)s1", "Val": "97%"}

src = patent US8703811B2
